- target_entity: N-acetylneuraminic acid aldolase (Escherichia coli, UniProt P0A6L4)
- Sequence (P0A6L4 whole entry): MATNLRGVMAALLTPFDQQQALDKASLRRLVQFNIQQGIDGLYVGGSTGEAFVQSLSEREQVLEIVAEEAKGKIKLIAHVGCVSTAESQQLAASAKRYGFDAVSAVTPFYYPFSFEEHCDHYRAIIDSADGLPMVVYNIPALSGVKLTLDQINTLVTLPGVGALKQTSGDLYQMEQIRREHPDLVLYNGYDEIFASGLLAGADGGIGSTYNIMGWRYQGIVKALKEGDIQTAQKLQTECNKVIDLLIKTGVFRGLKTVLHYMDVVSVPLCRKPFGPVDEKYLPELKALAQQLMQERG
value_type: Ki

[[record]]
smiles_str = "O=C(O)C(=O)CF"
result = "49 mM"

